Recorded measurements of viability, T/C, one per entry
- Test system: 889142-216-R-J1-PDC complex spheroid viability;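 note: spheroids exposed to compounds for seven days; 100% = DMSO vehicle control viability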
- experiment.summary: Anticancer human tumor 889142-216-R-J1-PDC patient-derived bladder carcinoma cell line growth inhibition [POLQ]
- run.conditions: second compound 0.316 µM; first compound 0.316 µM; hits give low values

# molecule, viability, T/C, %
data = [
    ("CCc1cc2c(N3CCc4c(cc(Cn5ccnc5)cc4-c4cn(C)nc4C(F)(F)F)C3=O)ccnc2c(OC)n1 + Nc1ccc(C#CCN(C(=O)Cc2ncc(C(F)(F)F)cc2C(F)(F)F)c2ccc(F)cc2)nn1", 116),
    ("CC1COCCN1c1cc(C2(O)CC3CCC(C2)O3)c2cnn(-c3ccn[nH]3)c2n1 (stereo not given) + COC1C(OC(N)=O)C(O)C(Oc2ccc3c(O)c(NC(=O)c4ccc(O)c(CC=C(C)C)c4)c(=O)oc3c2C)OC1(C)C", 40.2),
    ("CC1COCCN1c1cc(C2(O)CC3CCC(C2)O3)c2cnn(-c3ccn[nH]3)c2n1 (stereo not given) + Cc1cccc(N(C)C(=O)C2C(O)CCN2c2nc(C)cc(C(F)(F)F)c2C#N)c1", 39.8),
    ("O=c1[nH]cc(F)c(=O)[nH]1 + Cc1cccc(N(C)C(=O)C2C(O)CCN2c2nc(C)cc(C(F)(F)F)c2C#N)c1", 73.6),
    ("CC1COCCN1c1cc(C2(S(C)(=N)=O)CC2)nc(-c2ccnc3[nH]ccc23)n1 (stereo not given) + Nc1ccc(C#CCN(C(=O)Cc2ncc(C(F)(F)F)cc2C(F)(F)F)c2ccc(F)cc2)nn1", 81.8),
]
